# Lookup of reported TGI keyed by entry
System: SF-268 CNS
protocol.summary: NCI tumour cell line growth inhibition, 48 h

In the examples that follow, each entry is paired with its recorded TGI.
1. O=C1c2cccnc2S(=O)N1Cc1ccccc1 (stereo not given): > 100 µM
2. O=C1CCCC2=C(N1)C(=O)C=CC2=O: 67.9 µM
3. CCC(C)C1NC(=O)C2CCCN2C(=O)C(CC2CO2)OC(=O)CCNC(=O)C(C)N(C)C(=O)C(C(C)C)N(C)C1=O (stereo not given): > 100 µM
4. CC(=O)OCc1cc(OC(C)=O)cnc1COC(C)=O: > 100 µM

Next item in the queue.
QUERY: Give TGI for this entry on SF-268 CNS: CCOc1ccccc1N=Nc1c(-c2ccccc2)nn(C(=O)CC(=O)Nc2cccc(Cl)c2)c1-c1ccccc1
RESULT: > 100 µM
